assay_text: in vitro
condition_label: human, liver microsomes
recorded_metric: CLint scaled (mL/min/g)
Please reply with the bare figure in mL/min/g and do not write the unit itself.

| structure_smiles_string | unit_abbrev | recorded_number |
| --- | --- | --- |
| Cc1cnc(-c2ccc3c(c2)CCN(CCCSc2nnc(-c4cccn4C)n2C)CC3)o1 | mL/min/g | 6.4 |

Challenge: Would you kindly share the measured CLint scaled for `Cc1ccc2c(-c3nnc(SCCCN4CCc5ccc(-c6ncc(C)o6)cc5CC4)n3C)cccc2n1` ?
Response given: 4.7

###

assay_text: in vivo
condition_label: Sprague-Dawley, rat
recorded_metric: Vd (L/kg)
Please reply with the bare figure in L/kg and do not write the unit itself.

| structure_smiles_string | recorded_metric | recorded_number |
| --- | --- | --- |
| Cc1ccc2c(-c3nnc(SCCCN4CCc5ccc(-c6cc(C)on6)cc5CC4)n3C)cccc2n1 | Vd | 3.4 |

Challenge: Would you kindly share the measured Vd for `Cc1ccc2c(-c3nnc(SCCCN4CCc5ccc(-c6ncc(C)o6)cc5CC4)n3C)cccc2n1` ?
Response given: 7.9
